Tested on: SF-295 CNS
Assay Summary: NCI tumour cell line growth inhibition, 48 h
Give TGI for every item shown.

Look up TGI for this molecule: Oc1ccccc1-c1n[nH]c(-c2ccccc2O)n1
> 100 µM

Next molecule up: O=C(O)c1nnsc1-c1csnn1
> 100 µM

Follow-up item: N#CCCN(CCCN(C(=O)Nc1ccc(NC(=O)N(CCCN(CCC#N)C(N)=O)c2ccccc2)cc1)c1ccccc1)C(N)=O
> 100 µM

###

Test system: EKVX NSCLC
Assay Summary: NCI tumour cell line growth inhibition, 48 h
Quantity: TGI

Would you mind telling me what TGI value was observed for Oc1c(Cl)cc(CN(Cc2cc(Cl)c(O)c(Cl)c2)C2CCCCC2)cc1Cl ?
> 100 µM

Lookup Cc1cccc(/C=C2/C(=O)Nc3ccccc32)n1
71.9 µM

Try this compound next: Nc1ccc(S(=O)(=O)NCCS(=O)(=O)O)cc1
> 100 µM

Same question, Brc1ccc(N=Nc2ccc3ccccc3n2)cc1 this time
> 100 µM

Do the same for Oc1cc2c(cc1C(c1ccc3c(c1)OCO3)N1CCN(C(c3ccc4c(c3)OCO4)c3cc4c(cc3O)OCO4)CC1)OCO2 (stereo not drawn) please
98.6 µM

Same question for OCC#CCCCCOCC#Cc1ccccc1C#CCOCCCCC#CCO please.
41.3 µM

Query COc1ccc(OC2OC(CO)C(O)C(O)C2O)cc1 (stereo not drawn) next
> 100 µM

What about this compound? Oc1ccccc1-c1n[nH]c(-c2ccccc2O)n1
> 34 µM

Moving on to O=C(O)c1nnsc1-c1csnn1
> 100 µM

Now the same for N/N=C(/CC(O)(C(F)(F)F)C(F)(F)F)c1ccccc1
> 10 µM

What do you get for Cc1ccc(/C=C2\CCCCCC2=O)cc1 ?
> 100 µM

What about this compound? Cc1cc(Cl)cc2c1NC(=O)C2(O)CC(=O)c1ccc(F)cc1 (stereo not drawn)
> 100 µM

What do you get for O=C(/N=C1/OC(CN2CCOCC2)CN1C(=O)Nc1ccccc1)Nc1ccccc1 (stereo not drawn) ?
> 100 µM

Likewise for CC[C@H]1C=CCC[C@@]2(C[C@@H]3CC[C@H]4[C@@H](C(=O)OCCCCCCCCCCCCCCCC(=O)N(CCCNC(C)=O)C[C@H](CCNC(C)=O)OC(C)=O)[C@@]5(CCC[C@@H](C)O5)NC(=[N+]34)N2)O1 ?
2.09 µM

And CC(CC(C)[C@H]1CCC2[C@H]3C(CC(=O)[C@@]21C)[C@@]1(C)CCC(O)C[C@H]1C[C@@H]3O)C(=O)O (stereo partly drawn) ?
> 100 µM

What do we get for O=C([CH-]C(=O)c1ccccc1)c1ccccc1.[CH3-].[CH3-].[CH3-].[Sn+4] ?
> 100 µM

Please do the same for C=C(C[C@@H](O)[C@H](C)NC(=O)OCc1ccccc1)C(=O)OC(C)(C)C as well.
> 100 µM

Could you do the same for C[N+]1(c2ccccc2)C=C(c2ccccc2)SC1=S (stereo not drawn) , please?
> 100 µM

###

System: NCI-H460 lung
Assay Summary: NCI tumour cell line growth inhibition, 48 h
Quantity: log10 TGI (log10 of the value in µM)
The figures below represent log10 of TGI, where TGI is stated in µM.

Entry Clc1ccc(-c2nc(C(Cl)Cl)nc3cc(-c4ccccc4)nn23)cc1 : reported log10 TGI = ?
0.33

Can you handle O=C(Nc1ccccc1[N+](=O)[O-])C(=O)C(C(=O)c1ccccc1-c1ccccc1)C1OC(=O)c2ccccc21 (stereo unspecified) next?
1.49

Lookup CC(=O)N1N=C(c2ccc(Nc3nc(Nc4ccc(F)cc4)nc(Nc4ccc(Cl)cc4)n3)cc2)CC1c1ccc(N(C)C)cc1 (stereo unspecified)
1.65

Please do the same for CC(C)(C)CN1[C@@H]2CCCC[C@H]2N(CC(C)(C)C)P1(=O)C(O)/C=C/c1ccccc1 (stereo partly specified) as well.
1.93

Then this compound: O=C(Nc1nc(-c2ccccc2)cs1)c1cc(O)c(O)c(O)c1
1.23

###

System: HT29 colon
Assay Summary: NCI tumour cell line growth inhibition, 48 h
Quantity: TGI

// returns reported TGI for input CC1(Cc2cc3c(cc2C2(c4ccc([N+](=O)[O-])cc4)OCCO2)OCO3)OCCO1
> 100 µM

Also CC1=NN(C(=O)CC(=O)Nc2ccc(Cl)cc2)C(=O)C1N=Nc1ccc(S(=O)(=O)c2ccc(N=NC3C(=O)N(C(=O)CC(=O)Nc4ccc(Cl)cc4)N=C3C)cc2)cc1 (stereo not drawn) , if possible.
> 100 µM

And what about the compound O=C1COc2cc3c(cc2N1)SCCC(=O)N3 ?
> 100 µM

###

For each record, write down the corresponding TGI.
Tested on: NCI-H226 lung
Assay Summary: NCI tumour cell line growth inhibition, 48 h

Which TGI reading was recorded for the compound Oc1cc2c(cc1C(c1ccc3c(c1)OCO3)N1CCN(C(c3ccc4c(c3)OCO4)c3cc4c(cc3O)OCO4)CC1)OCO2 (configuration not stated) ?
29.6 µM

Then what about the compound CCN(CC)c1ccc2cc(-c3csc(C)n3)c(=O)oc2c1 ?
> 100 µM

Same lookup for COc1ccc(C2CC(c3cccc(OC)c3)=NN2C(=O)c2cc(OC)c(OC)c(OC)c2)cc1 (configuration not stated) , please.
> 100 µM

Consider next the compound CNC(=O)OCc1nc(N=[N+]=[N-])n(C)c1COC(=O)NC in the same way.
> 100 µM

What would you report for C=C1C(=O)OC2/C=C(\C)CC/C=C(\C)CC(OC(=O)/C(=C/CO)CO)[C@@H]12 (some centres not stated) ?
> 80.4 µM

Another: CC(=O)OC1CC2(O)C(CCC3(C)C(c4ccc(=O)oc4)CCC32O)C2(C)CCC(OC3OC(CO)C(O)C(O)C3O)C=C12 (configuration not stated)
0.176 µM

Next: [O-]/[N+](=N/c1ncc(-c2ccccc2)cn1)c1ncc(-c2ccccc2)cn1
> 100 µM

###

Test system: MDA-MB-231 breast
Assay Summary: NCI tumour cell line growth inhibition, 48 h
Quantity: TGI (µM)
Express it in µM; write the number only.

Quick one: TGI for O=C1O/C(=C\C=C\CO)C=C1/C=C/CO ?
52.8

Do the same for c1ccc2c(-c3cnn4cc(-c5ccc(N6CCNCC6)cc5)cnc34)ccnc2c1 please
3.03

###

For each entry below, report its TGI value.
Tested on: SF-268 CNS
Assay Summary: NCI tumour cell line growth inhibition, 48 h
*1 amine or outer side, *2 acyl side, *3 side chain or, on linkers, in order; H or OH if unused. Where a SMILES comes first, the peptide text is derived from it. Bridges are numbered along the chain shown (N, C = ends). [ ]: non-standard residue; d: D form. X59 = COc1c(N[*:1])cccc1C(=O)O[C@H](C(=O)[C@H](C)C(=O)[*:2])C(C)C; X58 = CC(C)C[C@H](C(=O)[*:2])C(C)C(=O)C1CCCN1[*:1]; NMeY = CN[C@@H](Cc1ccc(O)cc1)C(=O)O; Lac = C[C@H](O)C(=O)O

Endpoint output: TGI of O=c1cc(-c2ccc3ccccc3c2)[nH]c2ncccc12 . Value?
> 100 µM

Now the compound CC(C)(C)c1cc(-c2c3nc(c(-c4cc(C(C)(C)C)cc(C(C)(C)C)c4)c4ccc([nH]4)c(-c4cc(C(C)(C)C)cc(C(C)(C)C)c4)c4nc(c(-c5cc(C(C)(C)C)cc(C(C)(C)C)c5)c5ccc2[nH]5)C=C4)C=C3)cc(C(C)(C)C)c1
> 100 µM

Then CC(=O)OCC1OC(n2c(=S)n(-c3ccccc3)c(=S)c3ccccc32)C(OC(C)=O)C(OC(C)=O)C1OC(C)=O (stereo unspecified) ?
> 100 µM

Request: CCCCCCCC(=O)NS(=O)(=O)c1ccccc1
> 100 µM

Repeat for the following compound: O=C(c1ccccc1)c1ccc(O)c2ncccc12
> 100 µM

Input N#Cc1nc(-c2ccc(-c3nc(C#N)c(N)o3)cc2)oc1N
> 10 µM

One more compound: COc1cc(OC)c2nc(C)c3c(c2c1)OCC3
> 100 µM

Also, CNC12C3C4C1C1C2C3C41C(=O)N[C@H](C(=O)N(C)[C@H](C[C@@H](OC(C)=O)c1nc(C(=O)N[C@@H](Cc2ccccc2)C[C@H](C)C(=O)OC)cs1)C(C)C)C1CC1 (stereo partly specified) please.
> 10.6 µM

What about this compound? COC(=O)C1Cc2c([nH]c3ccccc23)-c2[nH]c3ccccc3c2CC(NC(C)=O)C(=O)NCC(=O)NCC(=O)N1 (stereo unspecified)
> 100 µM

Try this compound next: Cc1ccc(S(=O)(=O)N[C@@H](Cc2ccccc2)C(=O)CCl)cc1
43.6 µM

Also CC(=O)OC1CC2C(C)(C)OC(=O)CC(OC(C)=O)[C@]2(C)C2CCC3(C)C(=CCC3c3ccoc3)[C@]12C (stereo partly specified) ?
> 100 µM

C=CC[C@@]12CCC(=O)C=C1CCCC2=O , same question.
> 100 µM

What do we get for O=C1OC(C2Cc3ccc4c(c3C2=O)CCCC4)c2ccccc21 (stereo unspecified) ?
> 100 µM

Follow-up item: OCC#CCCCCOCC#Cc1ccccc1C#CCOCCCCC#CCO
> 100 µM

Please give the result for O=C(Nc1ccccc1[N+](=O)[O-])C(=O)C(C(=O)c1ccccc1-c1ccccc1)C1OC(=O)c2ccccc21 (stereo unspecified) too.
41 µM

Now consider COc1ccc(C[C@H]2C(=O)O[C@H](C)[C@H](NC(=O)[C@@H](CC(C)C)C(C)C(=O)C3CCCN3C(=O)[C@H](C)O)C(=O)Nc3cccc(c3OC)C(=O)O[C@@H](C(C)C)C(=O)[C@H](C)C(=O)N[C@@H](CC(C)C)C(=O)N3CCC[C@H]3C(=O)N2C)cc1 (stereo partly specified) (H-[Lac][X58]T[X59]LP[NMeY](Me); ester 3-C) .
> 12.5 µM
